meta.source: PubChem BioAssay AID2060604

system: 379773-124-R-J2-PDC complex spheroids, viability % test/control; assay: Anticancer human tumor 379773-124-R-J2-PDC patient-derived endometrial carcinoma cell line growth inhibition [CLK]; conditions: curve of first compound; second compound 1 µM;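 further: compound exposure lasted seven days before the viability readout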
Endpoint: IC50

Would you please look over these solved cases?
INSERT INTO results (compound, endpoint, readout_value) VALUES
  ('CC(C)CC(NC(=O)C(Cc1ccccc1)NC(=O)c1cnccn1)B(O)O (stereo unspecified) + CN1CCN(c2cc(C(=O)Nc3cc4cc(-c5cnn(C)c5)ccc4cn3)ccn2)CC1', 'IC50', '< 0.949 nM'),
  ('Cn1ncnc1[C@H]1c2n[nH]c(=O)c3cc(F)cc(c23)N[C@@H]1c1ccc(F)cc1 + CN1CCN(c2cc(C(=O)Nc3cc4cc(-c5cnn(C)c5)ccc4cn3)ccn2)CC1', 'IC50', '< 0.316 nM'),
  ('CC(CO)NC(=O)c1cc(-c2ccc(Cl)cc2)nn(-c2cnn(C)c2)c1=O (stereo unspecified) + CNC(=O)c1ccc(Nc2nc(OC3CCCC3)c3c(-c4ccc5nc(C)oc5c4)c[nH]c3n2)c(OC)c1', 'IC50', '< 31.6 nM'),
  ('CC1COCCN1c1cc(C2(S(C)(=N)=O)CC2)nc(-c2ccnc3[nH]ccc23)n1 (stereo unspecified) + CNC(=O)c1ccc(Nc2nc(OC3CCCC3)c3c(-c4ccc5nc(C)oc5c4)c[nH]c3n2)c(OC)c1', 'IC50', '< 31.6 nM'),
  ('C=C(F)C(=O)N1CCN(c2nc(OCC3CCCN3C)nc3c2CCN(c2cccc4cccc(Cl)c24)C3)CC1CC#N (stereo unspecified) + CNC(=O)c1ccc(Nc2nc(OC3CCCC3)c3c(-c4ccc5nc(C)oc5c4)c[nH]c3n2)c(OC)c1', 'IC50', '< 31.6 nM');

Next up:
Please indicate IC50 recorded for O=c1[nH]cc(F)c(=O)[nH]1 + CN1CCN(c2cc(C(=O)Nc3cc4cc(-c5cnn(C)c5)ccc4cn3)ccn2)CC1
< 31.6 nM
